Protocol: Apoptosis assay (Annexin V / 7-AAD cytofluorimetry)
Type: cell-based, human
Assay context: human, HUVEC cells, FIG. 5, read-out: percentage of viability
Property measured: viability at 24 h, 10 µM

[
  {
    "Compound": "COc1cc(O)c(CC=C(C)C)c(O)c1C(=O)/C=C/c1ccc(F)cc1 [LR6]",
    "Reported": "~90%"
  },
  {
    "Compound": "COCOc1cc(OC)c(C(=O)/C=C/c2ccc(F)cc2)c(O)c1CC=C(C)C [LR7]",
    "Reported": "~90%"
  }
]
